Norepinephrine transporter (Rattus norvegicus) Ki data
Sequence (Q9WTR4 whole entry): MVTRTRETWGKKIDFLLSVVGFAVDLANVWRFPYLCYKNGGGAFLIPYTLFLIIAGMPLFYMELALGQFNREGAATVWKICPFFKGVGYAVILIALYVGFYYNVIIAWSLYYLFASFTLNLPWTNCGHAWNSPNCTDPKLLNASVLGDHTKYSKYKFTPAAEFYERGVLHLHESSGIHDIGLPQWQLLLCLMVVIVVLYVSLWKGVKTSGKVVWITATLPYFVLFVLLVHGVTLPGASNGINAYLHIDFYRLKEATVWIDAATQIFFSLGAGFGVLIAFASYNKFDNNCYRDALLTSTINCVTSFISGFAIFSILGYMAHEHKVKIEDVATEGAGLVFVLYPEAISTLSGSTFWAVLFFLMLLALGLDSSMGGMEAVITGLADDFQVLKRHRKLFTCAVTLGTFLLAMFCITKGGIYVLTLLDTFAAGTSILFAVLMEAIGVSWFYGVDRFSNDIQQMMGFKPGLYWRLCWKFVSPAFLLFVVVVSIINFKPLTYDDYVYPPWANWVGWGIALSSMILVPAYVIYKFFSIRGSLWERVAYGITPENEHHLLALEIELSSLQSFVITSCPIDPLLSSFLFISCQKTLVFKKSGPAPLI
Numeric only. Scale: nM

Check out these entries, answers already filled in.
CN(C)Cc1ccccc1Sc1ccc(F)cc1CO : 28.4
CNCc1ccccc1Sc1ccc(I)cc1CO : 12.8
CNCc1ccccc1Sc1ccc(Br)cc1N : 107

Now consider a different compound.
*Q* What does the data say about its Ki? Entry: CNCc1ccccc1Sc1ccc(I)cc1N
*A* 714

====

TEST SYSTEM: Sodium-dependent serotonin transporter (Rattus norvegicus, UniProt P31652)
Sequence (P31652 whole entry): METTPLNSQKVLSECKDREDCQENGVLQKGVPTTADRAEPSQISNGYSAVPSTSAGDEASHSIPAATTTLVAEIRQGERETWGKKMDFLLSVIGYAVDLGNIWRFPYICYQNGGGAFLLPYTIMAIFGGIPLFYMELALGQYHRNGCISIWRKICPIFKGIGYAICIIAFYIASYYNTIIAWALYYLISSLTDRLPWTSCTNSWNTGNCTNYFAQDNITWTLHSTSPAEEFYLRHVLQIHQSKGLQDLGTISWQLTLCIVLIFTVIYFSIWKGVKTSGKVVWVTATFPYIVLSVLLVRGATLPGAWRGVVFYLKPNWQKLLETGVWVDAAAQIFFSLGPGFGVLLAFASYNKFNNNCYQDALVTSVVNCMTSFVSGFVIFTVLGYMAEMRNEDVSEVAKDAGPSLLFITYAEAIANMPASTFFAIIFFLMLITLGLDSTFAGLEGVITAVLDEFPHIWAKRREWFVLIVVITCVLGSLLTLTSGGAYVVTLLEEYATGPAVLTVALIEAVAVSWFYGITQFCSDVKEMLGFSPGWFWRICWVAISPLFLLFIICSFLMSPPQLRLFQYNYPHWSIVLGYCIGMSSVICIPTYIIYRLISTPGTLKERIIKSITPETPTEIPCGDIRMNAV
MEASURE NAME: log10 of Ki (log10 of the value in nM)
Hello, just confirming the data are log10 of Ki with units of nM.

See these solved cases before continuing.
CN(CCF)Cc1ccccc1Sc1ccc(I)cc1N : 1.29
CN(C)Cc1ccccc1Sc1ccc(Br)cc1N : 0.35
CN(C)C(=O)c1ccccc1Sc1ccc(F)cc1C=O : 2.84
CNCc1ccccc1Sc1ccc(I)cc1CO : -0.01
CN(C)Cc1ccccc1Sc1ccc(/C=C/I)cc1N : 1.73

*Q* Name the recorded log10 of Ki for CN(C)Cc1ccccc1Sc1ccc(Br)cc1CO .
*A* 0.28

*Q* What do we get for CNCc1ccccc1Sc1ccc(Br)cc1N ?
*A* 0.17

*Q* Repeat with Cc1ccc(Sc2ccccc2CN(C)C)c(N)c1
*A* 0.22

====

TEST SYSTEM: Sodium-dependent dopamine transporter (Rattus norvegicus, UniProt P23977)
Sequence (P23977 whole entry): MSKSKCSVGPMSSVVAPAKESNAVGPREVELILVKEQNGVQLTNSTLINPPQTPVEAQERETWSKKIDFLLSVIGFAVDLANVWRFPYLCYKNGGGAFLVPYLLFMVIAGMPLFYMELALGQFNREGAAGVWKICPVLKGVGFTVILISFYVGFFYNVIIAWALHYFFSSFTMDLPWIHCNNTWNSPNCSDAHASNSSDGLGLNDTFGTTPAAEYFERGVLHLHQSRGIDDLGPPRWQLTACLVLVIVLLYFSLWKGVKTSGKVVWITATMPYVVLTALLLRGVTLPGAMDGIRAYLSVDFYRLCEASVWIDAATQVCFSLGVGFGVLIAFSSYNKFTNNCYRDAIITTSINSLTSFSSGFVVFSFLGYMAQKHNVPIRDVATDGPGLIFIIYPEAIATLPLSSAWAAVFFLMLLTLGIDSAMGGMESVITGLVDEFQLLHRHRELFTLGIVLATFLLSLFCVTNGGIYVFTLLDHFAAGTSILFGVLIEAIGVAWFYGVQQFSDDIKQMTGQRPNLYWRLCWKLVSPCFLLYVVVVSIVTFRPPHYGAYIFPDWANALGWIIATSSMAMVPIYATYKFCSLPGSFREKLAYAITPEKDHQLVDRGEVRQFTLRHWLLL
MEASURE NAME: Ki (nM)
Provide the reading as a plain figure in nM.

Use the examples below as a reference point.
CNCc1ccccc1Sc1ccc(I)cc1N : 818
CN(C)Cc1ccccc1Sc1ccc(Br)cc1CO : 950
CN(C)Cc1ccccc1Sc1ccc(F)cc1CO : 339
COCc1cc(I)ccc1Sc1ccccc1CN(C)C : 172

*Q* Query: Ki; subject: CNCc1ccccc1Sc1ccc(I)cc1CO
*A* 760
